Experiment: clinical
Conditions: human, in vivo, po, 300 mg/m2

COMPOUND	CL renal
CC(=O)O[C@H]1C(=O)[C@@]2(C)[C@H]([C@H](OC(=O)c3ccccc3)[C@]3(O)C[C@H](OC(=O)[C@H](O)[C@@H](NC(=O)c4ccccc4)c4ccccc4)C(C)=C1C3(C)C)[C@]1(OC(C)=O)CO[C@@H]1C[C@@H]2O [Paclitaxel]	33.3 mL/min

----------
Assay: clinical
Conditions: human, in vivo, po, 240 mg/m2
READOUT: AUC(0-t)

COMPOUND	RESULT
CC(=O)O[C@H]1C(=O)[C@@]2(C)[C@H]([C@H](OC(=O)c3ccccc3)[C@]3(O)C[C@H](OC(=O)[C@H](O)[C@@H](NC(=O)c4ccccc4)c4ccccc4)C(C)=C1C3(C)C)[C@]1(OC(C)=O)CO[C@@H]1C[C@@H]2O [Paclitaxel]	2.55 µg·h/mL
